target: Ephrin type-B receptor 4 (Homo sapiens) (UniProt P54760); settings: at 1 µM;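 note: reported value is the mean percent inhibition of EPHB4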
Sequence (P54760 whole entry): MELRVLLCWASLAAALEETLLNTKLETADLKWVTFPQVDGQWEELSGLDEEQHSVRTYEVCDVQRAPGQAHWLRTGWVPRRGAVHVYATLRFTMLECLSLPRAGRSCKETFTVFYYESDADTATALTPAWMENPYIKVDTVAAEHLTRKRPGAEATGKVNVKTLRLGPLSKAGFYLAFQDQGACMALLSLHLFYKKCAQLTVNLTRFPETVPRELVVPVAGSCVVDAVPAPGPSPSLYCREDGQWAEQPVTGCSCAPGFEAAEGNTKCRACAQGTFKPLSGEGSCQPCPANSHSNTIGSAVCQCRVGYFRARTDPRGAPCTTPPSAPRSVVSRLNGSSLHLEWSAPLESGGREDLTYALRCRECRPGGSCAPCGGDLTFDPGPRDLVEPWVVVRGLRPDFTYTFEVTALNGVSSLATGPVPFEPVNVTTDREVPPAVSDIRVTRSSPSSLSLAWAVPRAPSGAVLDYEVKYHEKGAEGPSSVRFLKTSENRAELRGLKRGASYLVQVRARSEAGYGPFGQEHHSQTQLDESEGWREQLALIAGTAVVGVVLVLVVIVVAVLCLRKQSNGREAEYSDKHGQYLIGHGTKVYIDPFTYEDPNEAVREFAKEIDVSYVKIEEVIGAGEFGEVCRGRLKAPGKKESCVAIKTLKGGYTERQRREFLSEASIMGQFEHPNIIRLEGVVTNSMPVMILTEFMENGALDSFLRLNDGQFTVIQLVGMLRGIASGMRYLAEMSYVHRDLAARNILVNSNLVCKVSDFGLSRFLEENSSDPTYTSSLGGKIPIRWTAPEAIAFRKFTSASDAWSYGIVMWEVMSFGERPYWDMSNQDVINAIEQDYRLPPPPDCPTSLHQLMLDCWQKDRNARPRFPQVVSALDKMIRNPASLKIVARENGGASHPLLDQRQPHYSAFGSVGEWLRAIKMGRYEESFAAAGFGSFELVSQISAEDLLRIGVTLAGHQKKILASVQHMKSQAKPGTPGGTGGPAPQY
Reported inhibition values follow for various compounds
Just the number please, in %, no unit attached.

Check the records and state inhibition for Fc1cccc(COc2ccc(Nc3ncncc3C#Cc3ccccc3)cc2Cl)c1
2.18

More entries:
# return recorded inhibition for entry COc1cccc(-n2ncc3c(N/N=C/c4ccc(C(=O)NCCN(C)C)cc4)ncnc32)c1
30.5

Supply inhibition value. Item: Cc1cc(O)cc(C)c1/C=C/c1cncc(C(=O)OC(C)(C)C)c1
70.4

Fill in reported inhibition for this entry: CN(C)CCNC(=O)Nc1ccc(N(C)c2ccnc(Nc3ccc(CS(C)(=O)=O)cc3)n2)cc1
3.65

Name the recorded inhibition of the item CN1CCC(n2cnc(-c3ccc(F)cc3)c2-c2ccnc(NCCO)n2)CC1 in your answer.
8.07
